src = paper PMC9324959

Test protocol: Cytotoxicity assay
Assay type: cell-based
Assay context: human, HeLa cells
Examples of compounds with documented IC50 at 72 h follow.
Only the number, expressed in µM, is required.

- Compound structure string: "COc1cccc(Nc2nc(-c3ccc(NC(C)=O)cc3)cs2)c1"
  Measurement unit: "µM"
  Number: 43

Entry `CC(=O)Nc1ccc(-c2csc(Nc3cccc(C)c3)n2)cc1` — recorded IC50 at 72 h = 37

Entry `CC(=O)Nc1ccc(-c2csc(Nc3ccccc3)n2)cc1` — recorded IC50 at 72 h = 48

Entry `CC(=O)Nc1ccc(-c2csc(Nc3cccc(Cl)c3)n2)cc1` — recorded IC50 at 72 h = 19

Entry `CCC(=O)Nc1ccc(-c2csc(Nc3cccc(F)c3)n2)cc1` — recorded IC50 at 72 h = 38

Entry `CC(=O)Nc1ccc(-c2csc(Nc3ccccc3C(F)(F)F)n2)cc1` — recorded IC50 at 72 h = 71

Entry `CC(=O)Nc1ccc(-c2csc(Nc3ccccc3C)n2)cc1` — recorded IC50 at 72 h = 59

Entry `CC(C)C(=O)Nc1ccc(-c2csc(Nc3cccc(F)c3)n2)cc1` — recorded IC50 at 72 h = 34

Entry `CC(=O)Nc1ccc(-c2csc(Nc3cccc(O)c3)n2)cc1` — recorded IC50 at 72 h = 50

Entry `O=C(Nc1ccc(-c2csc(Nc3cccc(F)c3)n2)cc1)C1CC1` — recorded IC50 at 72 h = 38
